Reference for the values: PubChem BioAssay (NCI)

I'd appreciate it if you could supply TGI values for the items below.
System: MDA-MB-435
PROTOCOL_NOTES: NCI tumour cell line growth inhibition, 48 h

Examples with their reported TGI follow.
- COMPOUND: "NCCCCc1cc(O)c2c(c1O)C(=O)c1ccccc1C2=O"
  TGI: "43.6 µM"
- COMPOUND: "Brc1cc(CCOC2CCCCO2)c(-c2sccc2CCOC2CCCCO2)s1 (stereo not given)"
  TGI: "> 100 µM"
- COMPOUND: "C=CCOC(=O)NC1C(OC(C)[C@@H](NC(=O)OCc2ccccc2)C(=O)OC(C)(C)C)OC(COC(C)=O)C(OC(C)=O)C1OC(C)=O (stereo not given in full)"
  TGI: "> 100 µM"
- COMPOUND: "O=C(c1ccc(Cl)cc1)N(C(=O)N1CCC(c2ccccc2)CC1)c1ccccc1"
  TGI: "> 100 µM"
- COMPOUND: "COc1c(O)cc2oc(-c3ccc(O)cc3)cc(=O)c2c1O"
  TGI: "> 100 µM"
- COMPOUND: "Fc1ccc(C(OCCN2CCC3CCC(C2)N3C/C=C/c2ccco2)c2ccc(F)cc2)cc1 (stereo not given)"
  TGI: "26.5 µM"
- COMPOUND: "CN1CNc2nc(N)n(C)c(=O)c2C1"
  TGI: "> 10 µM"
- COMPOUND: "Cc1cc(Cl)ccc1Nc1nc(C(F)(F)F)ccc1C(=O)N/N=C/c1ccc(Cl)cc1"
  TGI: "3.89 µM"

Hi! Can you tell me TGI for each of these compounds?
1. S=C1N(/N=C/c2c3ccccc3cc3ccccc23)C(=Nc2ccccc2)C(=Nc2ccccc2)N1c1ccccc1
2. CC(C)OCC1CC(CC(=O)Nc2nncs2)C(=O)O1 (stereo not given)

> 100 µM
> 100 µM
